measuredOn: Hdm2 protein (amino acids 2-185) (Homo sapiens, UniProt Q00987)
Construct: Hdm2 protein (amino acids 2-185)
Sequence (Q00987 2-185): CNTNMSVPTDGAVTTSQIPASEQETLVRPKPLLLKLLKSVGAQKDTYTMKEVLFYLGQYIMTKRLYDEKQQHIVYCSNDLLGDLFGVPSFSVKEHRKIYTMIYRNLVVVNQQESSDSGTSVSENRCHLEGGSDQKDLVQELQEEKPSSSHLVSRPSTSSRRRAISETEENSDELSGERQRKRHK
assay: Fluorescence polarisation assay, inhibition of p53-Hdm2 interaction
Format: binding
assayContext: Hdm2 3 nM, Cy5-labelled p53-derived peptide 1 nM
This section presents compounds with their documented IC50 values.
reportedMetric: IC50 (µM)

structurenotation=O=C(NCCN1CCN(Cc2ccccn2)C1=O)c1[nH]c2cc(Cl)ccc2c1-c1c(-c2ccccc2)ncn1Cc1ccc(Cl)cc1 reportedmetric=IC50 valuereported=0.19
structurenotation=OCc1cc(Cl)ccc1Cn1cnc(-c2ccccc2)c1-c1c[nH]c2cc(Cl)c(F)cc12 reportedmetric=IC50 valuereported=0.11
structurenotation=Oc1cccc(-c2ncn(Cc3ccc(Cl)cc3)c2-c2c[nH]c3cc(Cl)c(F)cc23)c1 reportedmetric=IC50 valuereported=0.64
structurenotation=O=C(CN1CCN(CCNC(=O)c2[nH]c3cc(Cl)ccc3c2-c2c(-c3ccccc3)ncn2Cc2ccc(Cl)cc2)CC1)Nc1cccnc1 reportedmetric=IC50 valuereported=0.3
structurenotation=Fc1cc2c(-c3c(-c4ccccc4)ncn3Cc3ccc4cc[nH]c4c3)c[nH]c2cc1Cl reportedmetric=IC50 valuereported=7.2
